The measurements presented in this section are drawn from patent US20230391736A1.

TARGET_OR_TEST_SYSTEM: SARS-CoV-2 3CL^pro (Severe acute respiratory syndrome coronavirus 2 (2019-nCoV) (SARS-CoV-2))
TEST_METHOD_NOTES: biochemical
CONDITION_INFO: FRET, non-linear regression; read-out: IC50 against 3CL^pro
EXPERIMENTAL_ENDPOINT: pIC50
A value of pIC50 is the negative decimal logarithm of a concentration given in moles per litre.

MOLECULE | pIC50
Cn1cc2cc(/N=c3\[nH]c(=O)n(Cc4nnn[nH]4)c(=O)n3Cc3ccc(F)cc3)c(Cl)cc2n1 [Compound 12] | 6.74
CCn1nnnc1Cn1c(=O)[nH]/c(=N\c2cc3cn(C)nc3cc2Cl)n(Cc2cc(F)c(F)cc2F)c1=O [Compound 17] | 6.80

Next:
Prompt: Give pIC50 for the following molecule: Cn1cc2cc(/N=c3\[nH]c(=O)n(Cc4nnn[nH]4)c(=O)n3Cc3cc(F)c(F)cc3F)c(Cl)cc2n1 [Compound 1]
Response: 6.92

----------
TARGET_OR_TEST_SYSTEM: SARS-CoV-2 3CL^pro (Severe acute respiratory syndrome coronavirus 2 (2019-nCoV) (SARS-CoV-2))
TEST_METHOD_NOTES: biochemical
CONDITION_INFO: FRET, class symbols; read-out: IC50 (nM), inhibitory activity against 3CL^pro
EXPERIMENTAL_ENDPOINT: IC50

COMPOUND | EXPERIMENTAL_ENDPOINT | REPORTED_MEASUREMENT
Cn1cc2cc(/N=c3\[nH]c(=O)n(Cc4nnnn4C4CCC4)c(=O)n3Cc3cc(F)c(F)cc3F)c(Cl)cc2n1 [Compound 23] | IC50 | 500 to 1000 nM
Cn1cc2cc(/N=c3\[nH]c(=O)n(Cc4nnn[nH]4)c(=O)n3Cc3cc(F)c(F)cc3F)c(Cl)cc2n1 [Compound 1] | IC50 | < 200 nM
Cc1ccc(Cn2c(Nc3cc4cn(C)nc4cc3Cl)nc(=O)n(Cc3nnn[nH]3)c2=O)cc1 [Compound 3] | IC50 | 500 to 1000 nM
CCn1nnnc1Cn1c(=O)[nH]/c(=N\c2cc3cn(C)nc3cc2Cl)n(Cc2ccc(Cl)cc2)c1=O [Compound 20] | IC50 | 200 to 500 nM
Cn1cc2cc(/N=c3\[nH]c(=O)n(Cc4nnn[nH]4)c(=O)n3Cc3ccccc3)c(Cl)cc2n1 [Compound 2] | IC50 | 500 to 1000 nM
CC(C)n1nnnc1Cn1c(=O)[nH]/c(=N\c2cc3cn(C)nc3cc2Cl)n(Cc2cc(F)c(F)cc2F)c1=O [Compound 22] | IC50 | 200 to 500 nM
Cn1cc2cc(Nc3nc(=O)n(Cc4nnn[nH]4)c(=O)n3Cc3ccc(-c4ccccc4)cc3)c(Cl)cc2n1 [Compound 7] | IC50 | > 1000 nM
Cc1cc(C)cc(Cn2c(=O)n(Cc3nnn[nH]3)c(=O)[nH]/c2=N\c2cc3cn(C)nc3cc2Cl)c1 [Compound 13] | IC50 | 500 to 1000 nM
Cn1cc2cc(/N=c3\[nH]c(=O)n(Cc4nnn[nH]4)c(=O)n3Cc3cc(F)cc(F)c3)c(Cl)cc2n1 [Compound 15] | IC50 | < 200 nM
Cn1cc2cc(/N=c3\[nH]c(=O)n(Cc4nnn[nH]4)c(=O)n3Cc3ccc(Br)cc3)c(Cl)cc2n1 [Compound 6] | IC50 | 200 to 500 nM

Prompt: State its IC50: COc1cc(Cn2c(=O)n(Cc3nnn[nH]3)c(=O)[nH]/c2=N\c2cc3cn(C)nc3cc2Cl)cc(OC)c1 [Compound 14]
Response: 500 to 1000 nM

Prompt: Give recorded IC50. CCn1nnnc1Cn1c(=O)[nH]/c(=N\c2cc3cn(C)nc3cc2Cl)n(Cc2ccc(C(F)(F)F)cc2)c1=O [Compound 18]
Response: 200 to 500 nM

Prompt: Hello, please tell me recorded IC50 for this one: Cn1cc2cc(Nc3nc(=O)n(Cc4nnn[nH]4)c(=O)n3Cc3ccc(C(F)(F)F)cc3)c(Cl)cc2n1 [Compound 8]
Response: 500 to 1000 nM

Prompt: Recall and state the measured IC50 for Cn1cc2cc(/N=c3\[nH]c(=O)n(Cc4nnn[nH]4)c(=O)n3Cc3ccc(F)cc3)c(Cl)cc2n1 [Compound 12] .
Response: < 200 nM

Prompt: Report measured IC50; entry is CCn1nnnc1Cn1c(=O)[nH]/c(=N\c2ccc3nn(C)cc3c2)n(Cc2ccc([N+](=O)[O-])cc2)c1=O [Compound 19]
Response: 200 to 500 nM

Prompt: Tell us which IC50 value is on record for Cn1cc2cc(/N=c3\[nH]c(=O)n(Cc4nnn[nH]4)c(=O)n3Cc3ccc(OC(F)(F)F)cc3)c(Cl)cc2n1 [Compound 11]
Response: 500 to 1000 nM
